# credit: ChEMBL document CHEMBL2396599

# Assay Target: Human immunodeficiency virus type 1 integrase (Human immunodeficiency virus 1)
# Sequence (Q7ZJM1 whole entry): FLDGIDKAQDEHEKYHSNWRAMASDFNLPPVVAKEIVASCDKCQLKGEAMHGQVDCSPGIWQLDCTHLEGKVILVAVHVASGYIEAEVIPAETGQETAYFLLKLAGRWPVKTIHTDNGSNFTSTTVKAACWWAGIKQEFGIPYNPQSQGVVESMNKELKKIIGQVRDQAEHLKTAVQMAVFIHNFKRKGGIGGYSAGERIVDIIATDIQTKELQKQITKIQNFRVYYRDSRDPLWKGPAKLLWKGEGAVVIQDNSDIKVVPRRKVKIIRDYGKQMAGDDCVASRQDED
# Protocol Summary: Inhibition of wild type HIV-1 integrase strand transfer activity after 30 mins
pIC50: −log10 of the molar value. Starred links: 1 amine or outer side, 2 acyl side, 3 side chain; linkers in the order of their positions; H or OH if unused. Positions of bridges follow the written chain, without caps; N, C: chain ends. Non-standard residues stand in square brackets, D forms with d. Residues, ends and D or L forms follow the SMILES beside them. X1 = C[C@@](CCCCC=[*:3])(N[*:1])C(=O)[*:2]; S5 = C=CCCC[C@](C)(N)C(=O)O

Compound	Relation Operator	pIC50
CC[C@H](C)[C@@H]1NC(=O)[C@H](CC(C)C)NC(=O)[C@@](C)(NC(=O)[C@H](Cc2ccccc2)NC(=O)[C@H](Cc2ccc(O)cc2)NC(=O)[C@H](C)NC(=O)[C@@H](N)[C@@H](C)O)CCC/C=C\CCC[C@@](C)(C(=O)NCC(=O)N[C@@H](CCCNC(=N)N)C(=O)N[C@@H](Cc2c[nH]c3ccccc23)C(=O)O)NC(=O)[C@H](CC(C)C)NC1=O (H-TAYF[S5]LIL[S5]GRW-OH; staple (Z) 5-9)	=	4.60
CC(C)C[C@H](NC(=O)[C@H](Cc1ccccc1)NC(=O)[C@H](Cc1ccc(O)cc1)NC(=O)[C@H](C)NC(=O)[C@@H](N)[C@@H](C)O)C(=O)N[C@@H](CC(C)C)C(=O)N[C@@]1(C)CCC/C=C/CCC[C@@](C)(C(=O)N[C@@H](Cc2c[nH]c3ccccc23)C(=O)O)NC(=O)CNC(=O)[C@H](C)NC(=O)[C@H](CC(C)C)NC1=O (H-TAYFLL[S5]LAG[S5]W-OH; staple (E) 7-11)	<	4.00
CC(C)C[C@@H]1NC(=O)[C@H](CCCCN)NC(=O)[C@H](CC(C)C)NC(=O)[C@@](C)(NC(=O)[C@H](Cc2ccccc2)NC(=O)[C@H](Cc2ccc(O)cc2)NC(=O)[C@H](C)NC(=O)[C@@H](N)[C@@H](C)O)CCCC/C=C/CCCC[C@@](C)(C(=O)NCC(=O)N[C@@H](CCCNC(=N)N)C(=O)N[C@@H](Cc2c[nH]c3ccccc23)C(=O)O)NC1=O (H-TAYF[X1]LKL[X1]GRW-OH; staple (E) 5-9)	=	4.36

* * *

Measured EC50, listed per entry.
# System: Human immunodeficiency virus 1
# Protocol Summary: Antiviral activity against Human immunodeficiency virus 1 infected in human MT4 cells assessed as inhibition of virus-induced cytopathic effect by MTT assay
# Format: functional, organism-based
# Condition Set: Human immunodeficiency virus 1, MT4
Starred links: 1 amine or outer side, 2 acyl side, 3 side chain; linkers in the order of their positions; H or OH if unused. Positions of bridges follow the written chain, without caps; N, C: chain ends. Non-standard residues stand in square brackets, D forms with d. Residues, ends and D or L forms follow the SMILES beside them. αMeNva(5-ylidene) = C[C@@](CCC=[*:3])(N[*:1])C(=O)[*:2]; S5 = C=CCCC[C@](C)(N)C(=O)O

Compound	EC50
CC(C)C[C@@H]1NC(=O)[C@H](CCCCN)NC(=O)[C@H](CC(C)C)NC(=O)[C@@](C)(NC(=O)[C@H](Cc2ccccc2)NC(=O)[C@H](Cc2ccc(O)cc2)NC(=O)[C@H](C)NC(=O)[C@@H](NC(=O)c2ccc3c(c2)C(=O)OC32c3ccc(O)cc3Oc3cc(O)ccc32)[C@@H](C)O)CCC/C=C\CCC[C@@](C)(C(=O)NCC(=O)N[C@@H](CCCNC(=N)N)C(=O)N[C@@H](Cc2c[nH]c3ccccc23)C(=O)O)NC1=O (mixture of isomers)	11 µM
C=CCCC[C@](C)(NC(=O)[C@H](CC(C)C)NC(=O)[C@@H](NC(=O)[C@H](CC(C)C)NC(=O)[C@](C)(CCCC=C)NC(=O)[C@H](Cc1ccccc1)NC(=O)[C@H](Cc1ccc(O)cc1)NC(=O)[C@H](C)NC(=O)[C@@H](N)[C@@H](C)O)[C@@H](C)CC)C(=O)NCC(=O)N[C@@H](CCCNC(=N)N)C(=O)N[C@@H](Cc1c[nH]c2ccccc12)C(=O)O (H-TAYF[S5]LIL[S5]GRW-OH)	11 µM
CC[C@H](C)[C@@H]1NC(=O)[C@H](CC(C)C)NC(=O)[C@@](C)(NC(=O)[C@H](Cc2ccccc2)NC(=O)[C@H](Cc2ccc(O)cc2)NC(=O)[C@H](C)NC(=O)[C@@H](N)[C@@H](C)O)CCC/C=C\CCC[C@@](C)(C(=O)NCC(=O)N[C@@H](CCCNC(=N)N)C(=O)N[C@@H](Cc2c[nH]c3ccccc23)C(=O)O)NC(=O)[C@H](CC(C)C)NC1=O (H-TAYF[S5]LIL[S5]GRW-OH; staple (Z) 5-9)	5 µM
CC(C)C[C@@H]1NC(=O)[C@H](CCCCN)NC(=O)[C@H](CC(C)C)NC(=O)[C@@](C)(NC(=O)[C@H](Cc2ccccc2)NC(=O)[C@H](Cc2ccc(O)cc2)NC(=O)[C@H](C)NC(=O)[C@@H](N)[C@@H](C)O)CC/C=C/CC[C@@](C)(C(=O)NCC(=O)N[C@@H](CCCNC(=N)N)C(=O)N[C@@H](Cc2c[nH]c3ccccc23)C(=O)O)NC1=O (H-TAYF[αMeNva(5-ylidene)]LKL[αMeNva(5-ylidene)]GRW-OH; staple (E) 5-9)	> 40 µM
CC(C)C[C@H](NC(=O)[C@H](CCCCN)NC(=O)[C@H](CC(C)C)NC(=O)[C@]1(C)CCC/C=C\CCC[C@](C)(N)C(=O)N[C@@H](C)C(=O)N[C@@H](Cc2ccc(O)cc2)C(=O)N[C@@H](Cc2ccccc2)C(=O)N1)C(=O)N[C@@H](C)C(=O)NCC(=O)N[C@@H](CCCNC(=N)N)C(=O)N[C@@H](Cc1c[nH]c2ccccc12)C(=O)O (H-[S5]AYF[S5]LKLAGRW-OH; staple (Z) 1-5)	4 µM
CC(C)C[C@H](NC(=O)[C@H](CCCCN)NC(=O)[C@H](CC(C)C)NC(=O)[C@H](CC(C)C)NC(=O)[C@H](Cc1ccccc1)NC(=O)[C@H](Cc1ccc(O)cc1)NC(=O)[C@H](C)NC(=O)[C@@H](NC(=O)c1ccc2c(c1)C(=O)OC21c2ccc(O)cc2Oc2cc(O)ccc21)[C@@H](C)O)C(=O)N[C@@H](C)C(=O)NCC(=O)N[C@@H](CCCNC(=N)N)C(=O)N[C@@H](Cc1c[nH]c2ccccc12)C(=O)O (mixture of isomers)	13 µM
CC(C)C[C@@H]1NC(=O)[C@H](CCCCN)NC(=O)[C@H](CC(C)C)NC(=O)[C@@](C)(NC(=O)[C@H](Cc2ccccc2)NC(=O)[C@H](Cc2ccc(O)cc2)NC(=O)[C@H](C)NC(=O)[C@@H](N)[C@@H](C)O)CCC/C=C\CCC[C@@](C)(C(=O)NCC(=O)N[C@@H](CCCNC(=N)N)C(=O)N[C@@H](Cc2c[nH]c3ccccc23)C(=O)O)NC1=O (H-TAYF[S5]LKL[S5]GRW-OH; staple (Z) 5-9)	20 µM
